Test system: SK-OV-3 ovarian
Assay: NCI-60 one-dose screen, 48 h (100 = growth as untreated, 0 = no growth, -100 = all killed)
Details: 10 µM unless noted
Method: Growth inhibition of the SK-OV-3 human tumor cell line is measured as a screen for anti-cancer activity. Cells are grown in 96 well plates and exposed to the test compound for 48 hours. Compounds are tested at a single concentration, which is 10^-5 M for most compounds. The reported endpoint is percent growth (GI% or GIPRCNT), where numbers from 0 - 100% represent growth inhibition, and numbers from -100% - 0 represent cell death. For example, a value of 40 represents 60% growth inhibition. […]
This is part of a sample that, as a whole, favours compounds with a hit. Of some 83,000 tested, about 20% had one in any assay.
Measured growth accompanies every entry in the list below.
Kindly answer with a numeric value in %, unit omitted.

OCCNCCNc1c2ccccc2nc2ccccc12 ... 78
CCCCCCCCCCCCCCCCCCNC(=O)[C@H]1CSC(c2ccc(OC)c(F)c2)N1 (stereo not given in full) ... 88.1
Cc1cc(N/N=C/c2nc(-c3ccc(Cl)cc3)oc2C)c2cc(Br)ccc2n1 ... 104
CC(C)C1=C[C@@]23CC[C@@H]4[C@](C)(CCC[C@@]4(C)C(=O)OCC#CCN4CCCC4)[C@H]2C[C@@H]1[C@H]1C(=O)OC(=O)[C@H]13 ... 90.5
CS(=O)CCCCCN=C=S (stereo not given) ... 8.97
O=C(CN1CCN(c2cc3c(cc2F)c(=O)c(C(=O)O)cn3C2CC2)CC1)Nc1nc(-c2ccccc2)cs1 ... 93.9
COc1cc(NCCCCN=C(N)N)c2ncccc2c1 ... 88.3
O=C1Nc2ccccc2C12CC(c1ccccc1)=NN2 (stereo not given) ... 59.4

Recorded growth for O=C(Nc1ccc(Nc2cc(Nc3ccccc3)ncn2)cc1)Nc1cc(C(F)(F)F)ccc1F , please?
101

Recorded growth for Cc1sc2nc3[nH]/c(=C\c4ccc(Cl)cc4)c(=O)n3c(=O)c2c1C , please?
105

What does the record list as growth for O=C(O)C(O)C(O)C(=O)O.[NH-]C1CCCCC1[NH-].[Pt+2] (stereo not given) ?
105

Data credit: PubChem BioAssay (NCI)
